compounds and their reported TGI
system: PC-3 prostate; assay: NCI tumour cell line growth inhibition, 48 h
quantity: TGI (µM)

[[record]]
compound = "CC(=O)Oc1c(C)cc2c(c1C)C(C)(C)CN2C(=O)C(C)(C)C"
assayed_target = "PC-3 prostate"
readout_units = "µM"
reading_qualifier = ">"
data_value = 100

[[record]]
compound = "CS(=O)(=O)c1nccc(-c2c(-c3cccc(OCc4ccccc4)c3)nc3sccn23)n1"
assayed_target = "PC-3 prostate"
readout_units = "µM"
reading_qualifier = ">"
data_value = 26.8

[[record]]
compound = "O=C(O)c1[nH]c(=O)[nH]c(=O)c1CN1CCCCC1"
assayed_target = "PC-3 prostate"
readout_units = "µM"
reading_qualifier = ">"
data_value = 100

[[record]]
compound = "COc1cc(-c2nn(-c3ccc(NC(=O)Nc4ccc(Cl)c(C(F)(F)F)c4)cc3)cc2-c2ccncc2)ccc1Cl"
assayed_target = "PC-3 prostate"
readout_units = "µM"
reading_qualifier = ">"
data_value = 100

[[record]]
compound = "COc1cc(/C=C/C(=O)c2ccc(F)cc2)ccc1OCCCCOc1cc2c(cc1OC)C(=O)N1CCCC1C=N2 (configuration not stated)"
assayed_target = "PC-3 prostate"
readout_units = "µM"
reading_qualifier = "="
data_value = 12.8

[[record]]
compound = "COc1ccc(C(=O)OC2C(OC3C(O)COC(O[C@H]4C[C@H]5[C@@H]6CC=C7C[C@@H](O)CC[C@]7(C)[C@H]6CC[C@]5(C)[C@H]4[C@H](C)C(=O)CCC(C)C)C3OC(=O)C(C)C)OCC(O)C2O)cc1 (some centres not stated)"
assayed_target = "PC-3 prostate"
readout_units = "µM"
reading_qualifier = "="
data_value = 0.446

[[record]]
compound = "O=C1CC(C(O)C(O)C(O)CO)CC(=O)N1 (configuration not stated)"
assayed_target = "PC-3 prostate"
readout_units = "µM"
reading_qualifier = ">"
data_value = 100

[[record]]
compound = "Nc1nc(Cl)cc(NCC2(CO)CC(CCCc3ccccc3)C2)n1 (configuration not stated)"
assayed_target = "PC-3 prostate"
readout_units = "µM"
reading_qualifier = ">"
data_value = 100

[[record]]
compound = "CN(Cc1ccccc1)c1ncnc2ccc(Br)cc12"
assayed_target = "PC-3 prostate"
readout_units = "µM"
reading_qualifier = "="
data_value = 33.4

[[record]]
compound = "COc1cccc([C@@H]2C/C(=N\\NC(=O)C(=O)N[C@@H](C)c3ccccc3)c3cc4c(cc3N2)OCO4)c1"
assayed_target = "PC-3 prostate"
readout_units = "µM"
reading_qualifier = ">"
data_value = 100

[[record]]
compound = "O=S(Nc1ccccc1)c1ccccc1Oc1ccccc1 (configuration not stated)"
assayed_target = "PC-3 prostate"
readout_units = "µM"
reading_qualifier = ">"
data_value = 100

[[record]]
compound = "CC(/C=C/C=C\\C=C\\C=C(/C)C(=O)NC(C)CO)=C\\C(C)C(O)/C(C)=C/C(C)CCc1ccccc1 (configuration not stated)"
assayed_target = "PC-3 prostate"
readout_units = "µM"
reading_qualifier = "="
data_value = 25.2

[[record]]
compound = "COc1ccc(NC(=O)COc2ccccc2)c(C(N)=O)c1"
assayed_target = "PC-3 prostate"
readout_units = "µM"
reading_qualifier = ">"
data_value = 100

[[record]]
compound = "Cc1ccc(C(=O)Nc2ccc(CN3CCN(C)CC3)c(C(F)(F)F)c2)cc1C#Cc1cnc(N)c2ccc(C#N)cc12"
assayed_target = "PC-3 prostate"
readout_units = "µM"
reading_qualifier = "="
data_value = 13.8

[[record]]
compound = "NS(=O)(=O)c1ccc(C(=O)O)cc1"
assayed_target = "PC-3 prostate"
readout_units = "µM"
reading_qualifier = ">"
data_value = 100

[[record]]
compound = "CC/C=C\\C[C@H](O)C/C=C1/C(=O)C=C[C@@H]1C/C=C\\CCCC(=O)OCCS(=O)(=O)c1ccccc1"
assayed_target = "PC-3 prostate"
readout_units = "µM"
reading_qualifier = "="
data_value = 10.9

[[record]]
compound = "O=c1[nH]c(=S)n(-c2cccc3ccccc23)c(O)c1/C=C1\\C=Nc2ccccc21"
assayed_target = "PC-3 prostate"
readout_units = "µM"
reading_qualifier = "="
data_value = 6.74


Values were extracted from PubChem BioAssay (NCI).
